Where do the numbers come from? From patent US8853230B2.

Biological target: JAK2 (Homo sapiens, UniProt O60674)
Construct: 5 μl of catalytic domain recombinant Kinase enzyme+Tyr peptide substrate (Invitrogen, Calif.)
Sequence (O60674 849-1124 limits assumed): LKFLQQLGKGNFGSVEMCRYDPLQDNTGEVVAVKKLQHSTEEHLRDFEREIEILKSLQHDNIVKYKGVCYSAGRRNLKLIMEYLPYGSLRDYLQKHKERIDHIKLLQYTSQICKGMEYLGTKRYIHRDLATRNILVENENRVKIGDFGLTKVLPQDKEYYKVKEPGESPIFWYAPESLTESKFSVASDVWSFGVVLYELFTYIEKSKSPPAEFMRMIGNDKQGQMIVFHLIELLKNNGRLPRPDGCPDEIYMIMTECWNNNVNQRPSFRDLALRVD
Experiment: Z'-LYTE kinase assay, JAK2 tyrosine phosphorylation activity
Below, each entry is listed with its recorded IC50.

Known IC50 results, listed for orientation:
molecule=NC(=O)c1cnc(Nc2ccc(Cl)c(NC(=O)NC3CC3)c2)nc1NCc1ccccc1 measured_attribute=IC50 experimental_value="> 1 µM"
molecule=NC(=O)c1cnc(Nc2cccc(NC(=O)N3CCOCC3)c2)nc1NCc1ccccc1 measured_attribute=IC50 experimental_value="0.01 to 0.1 µM"
molecule="CC(=O)Nc1cccc(Nc2ncc(C(N)=O)c(NCC3CCCN(C(N)=O)C3)n2)c1 (centres unmarked)" measured_attribute=IC50 experimental_value="0.001 to 0.01 µM"

Reported IC50 for CNC(=O)Nc1ccc(F)c(Nc2ncc(C(N)=O)c(NCc3ccccc3)n2)c1 : what is it?
> 1 µM

Subsequent entry: COCC(=O)N(C)c1cccc(Nc2ncc(C(N)=O)c(NC3CCCC3)n2)c1
0.001 to 0.01 µM

Subsequent entry: CC(=O)Nc1cccc(Nc2ncc(C(N)=O)c(NCCc3ccccc3)n2)c1
0.01 to 0.1 µM

Subsequent entry: CC(=O)Nc1cccc(Nc2ncc(C(N)=O)c(Nc3cccc4nsnc34)n2)c1
0.01 to 0.1 µM

Subsequent entry: COCC(=O)Nc1cccc(Nc2ncc(C(N)=O)c(NCC3CC3)n2)c1
0.01 to 0.1 µM

---

Molecular target: JAK1 (Homo sapiens)
Construct: 5 μl of catalytic domain recombinant Kinase enzyme+Tyr peptide substrate (Invitrogen, Calif.)
Assay: Z'-LYTE kinase assay, JAK1 tyrosine phosphorylation activity
Conditions: read-out: JAK 1 IC50
Below, each entry is listed with its recorded IC50.

test_smiles=NC(=O)c1cnc(Nc2ccc(Cl)c(NC(=O)N3CCCC3)c2)nc1NCc1cccc(F)c1 experimental_value="> 1000 nM"
test_smiles=CCOC(=O)Nc1cccc(Nc2ncc(C(N)=O)c(NCc3ccccc3)n2)c1 experimental_value="100 to 1000 nM"
test_smiles=CC(=O)Nc1cccc(Nc2cc(NCC(C)C)c(C(N)=O)cn2)c1 experimental_value="100 to 1000 nM"
test_smiles=NC(=O)c1cnc(Nc2cccc(NC(=O)C3CC3)c2)nc1NCc1ccccc1 experimental_value="100 to 1000 nM"

Reported IC50 for C[C@@H](Nc1nc(Nc2cccc(NC(=O)N3CCOCC3)c2)ncc1C(N)=O)c1ccccc1 : what is it?
10 to 100 nM

---

Biological target: TYK2 (Homo sapiens, UniProt P29597)
Construct: 5 μl of catalytic domain recombinant Kinase enzyme+Tyr peptide substrate (Invitrogen, Calif.)
Sequence (P29597 897-1176 limits assumed): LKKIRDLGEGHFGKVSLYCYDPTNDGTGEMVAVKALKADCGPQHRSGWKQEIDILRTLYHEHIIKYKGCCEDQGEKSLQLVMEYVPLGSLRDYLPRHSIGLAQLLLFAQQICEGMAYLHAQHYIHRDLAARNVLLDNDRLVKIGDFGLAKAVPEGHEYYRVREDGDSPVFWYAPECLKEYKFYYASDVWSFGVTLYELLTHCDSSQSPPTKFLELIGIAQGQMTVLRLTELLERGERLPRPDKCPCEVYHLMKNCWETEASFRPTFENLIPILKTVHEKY
Assay: Z'-LYTE kinase assay, TYK2 tyrosine phosphorylation activity
Below, each entry is listed with its recorded IC50.

Known IC50 results, listed for orientation:
test_smiles=CN(C(=O)N1CCCC1)c1cc(Nc2ncc(C(N)=O)c(NCc3cccc(F)c3)n2)ccc1Cl target_or_system="TYK2 (Homo sapiens, UniProt P29597)" measured_attribute=IC50 experimental_value="> 1000 nM"
test_smiles=CN1CCN(C(=O)Nc2cccc(Nc3ncc(C(N)=O)c(NCc4cccc(F)c4)n3)c2)CC1 target_or_system="TYK2 (Homo sapiens, UniProt P29597)" measured_attribute=IC50 experimental_value="1 to 10 nM"
test_smiles=CC(=O)Nc1cccc(Nc2ncc(C(N)=O)c(NCc3cccnc3)n2)c1 target_or_system="TYK2 (Homo sapiens, UniProt P29597)" measured_attribute=IC50 experimental_value="10 to 100 nM"

Short answer please: IC50, TYK2 (Homo sapiens, UniProt P29597), entry CNC(=O)Nc1ccc(F)c(Nc2ncc(C(N)=O)c(NCc3ccccc3)n2)c1
100 to 1000 nM

Subsequent entry: COCC(=O)N(C)c1cccc(Nc2ncc(C(N)=O)c(NC3CCCC3)n2)c1
10 to 100 nM

---

Molecular target: TYK2 (Homo sapiens)
Construct: 5 μl of catalytic domain recombinant Kinase enzyme+Tyr peptide substrate (Invitrogen, Calif.); purchased Invitrogen
Assay: Z'-LYTE kinase assay, TYK2 tyrosine phosphorylation activity
Assay type: biochemical
pIC50: −log10 of the molar value.
Measured attribute: pIC50

Known pIC50 results, listed for orientation:
compound="NC(=O)c1cnc(Nc2cccc(NC(=O)N3CCC3)c2)nc1NCc1ccccc1 [Example 222]" experimental_value="8.00 to 9.00"
compound="CC[C@H](C)Nc1nc(Nc2ccc(Cl)c(NC(=O)NC)c2)ncc1C(N)=O [Example 175]" experimental_value="7.00 to 8.00"

Reported pIC50 for CNC(=O)Nc1cc(Nc2ncc(C(N)=O)c(NCc3ccccc3)n2)ccc1Cl [Example 131] : what is it?
7.00 to 8.00

Subsequent entry: COc1ccc(Nc2ncc(C(N)=O)c(NCc3ccccc3)n2)cc1NC(=O)N1CCCC1 [Example 163]
8.00 to 9.00

---

Molecular target: JAK2 (Homo sapiens, UniProt O60674)
Construct: 5 μl of catalytic domain recombinant Kinase enzyme+Tyr peptide substrate (Invitrogen, Calif.); purchased Invitrogen
Test: Z'-LYTE kinase assay, JAK2 tyrosine phosphorylation activity
Assay type: biochemical
Experimental: JAK and TYK2 tyrosine phosphorylation activity is measured using the Z′-LYTE™ Technology developed by Invitrogen Corporation (Carlsbad, Calif.). For JAK1, JAK2 and JAK3 the Z′-LYTE™ Kinase Assay Kit-Tyr6 Peptide (part number PV4122) was used. […] The Z′-LYTE™ biochemical assay employs a fluorescence resonance energy transfer (FRET) coupled-enzyme format and is based on the differential sensitivity of phosphorylated and non-phosphorylated peptides to proteolitic cleavage. […]
Below, each entry is listed with its recorded IC50.

Known IC50 results, listed for orientation:
compound=COC[C@@H]1CCCN1C(=O)Nc1cccc(Nc2ncc(C(N)=O)c(NCc3ccccc3)n2)c1 experimental_value="10 to 100 nM"
compound=CC(=O)Nc1cccc(Nc2ncc(C(N)=O)c(N[C@H](C)c3ccccc3)n2)c1 experimental_value="10 to 100 nM"
compound=CC(=O)Nc1cccc(Nc2cc(N[C@H](C)c3ccccc3)c(C(N)=O)cn2)c1 experimental_value="100 to 1000 nM"
compound=CN1CCN(C(=O)Nc2cccc(Nc3ncc(C(N)=O)c(NCc4cccc(F)c4)n3)c2)CC1 experimental_value="1 to 10 nM"
compound=CNC(=O)c1cnc(Nc2cccc(NC(C)=O)c2)nc1NCc1ccccc1 experimental_value="> 1000 nM"

Now take the following compound into account.
Short answer please: IC50, JAK2 (Homo sapiens, UniProt O60674), entry CC(=O)Nc1cccc(Nc2ncc(C(N)=O)c(NCc3cc(F)ccc3F)n2)c1
10 to 100 nM

---

Target: JAK1 (Homo sapiens, UniProt P23458)
Construct: 5 μl of catalytic domain recombinant Kinase enzyme+Tyr peptide substrate (Invitrogen, Calif.)
Sequence (P23458 875-1153 limits assumed): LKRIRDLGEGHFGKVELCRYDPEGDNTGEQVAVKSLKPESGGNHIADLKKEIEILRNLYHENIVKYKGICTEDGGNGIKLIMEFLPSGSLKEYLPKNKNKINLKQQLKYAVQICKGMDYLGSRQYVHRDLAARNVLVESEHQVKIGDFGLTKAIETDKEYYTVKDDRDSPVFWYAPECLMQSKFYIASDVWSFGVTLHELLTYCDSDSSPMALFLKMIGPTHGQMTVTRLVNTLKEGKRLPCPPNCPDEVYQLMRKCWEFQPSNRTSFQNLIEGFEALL
Assay: Z'-LYTE kinase assay, JAK1 tyrosine phosphorylation activity
Settings: read-out: JAK 1 IC50
pIC50: −log10 of the molar value.
Measured attribute: pIC50

Known pIC50 results, listed for orientation:
compound="CC(=O)Nc1cc(Nc2ncc(C(N)=O)c(NCc3cccc(F)c3)n2)ccc1OCCN(C)C [Example 228]" measured_attribute=pIC50 experimental_value="6.00 to 7.00"
compound="CN1CCN(C(=O)Nc2cccc(Nc3ncc(C(N)=O)c(NCc4cccc(F)c4)n3)c2)CC1 [Example 258]" measured_attribute=pIC50 experimental_value="7.00 to 8.00"
compound="CC(=O)Nc1cccc(Nc2ncc(C(N)=O)c(N[C@H]3CCC[C@@H]3O)n2)c1 (relative stereo) [Example 53]" measured_attribute=pIC50 experimental_value="7.00 to 8.00"

Reported pIC50 for CC(=O)Nc1cccc(Nc2ncc(C(N)=O)c(NCc3ccc(C)cc3)n2)c1 [Example 67] : what is it?
6.00 to 7.00

Subsequent entry: CC(=O)Nc1cccc(Nc2cc(NCC3CC3)c(C(N)=O)cn2)c1 [Example 329]
< 6.00

Subsequent entry: NC(=O)c1cnc(Nc2cccc(NC(=O)N3CCCC3)c2)nc1NCc1ccccc1F [Example 168]
7.00 to 8.00

Subsequent entry: CC(=O)Nc1cc(Nc2ncc(C(N)=O)c(NCc3cccc(F)c3)n2)ccc1OCCN1CCCC1 [Example 223]
7.00 to 8.00

Subsequent entry: NC(=O)c1cnc(Nc2ccc(F)c(NC(=O)N3CCC3)c2)cc1NCc1cccnc1 [Example 317]
< 6.00

Subsequent entry: COCC(=O)Nc1cccc(Nc2ncc(C(N)=O)c(NCc3ccc(Cl)cc3)n2)c1 [Example 45]
< 6.00

Subsequent entry: CC(=O)Nc1cccc(Nc2ncc(C(N)=O)c(Nc3cccc(-c4ncccn4)c3)n2)c1 [Example 199]
7.00 to 8.00

Subsequent entry: CC[C@@H](C)Nc1nc(Nc2ccc(Cl)c(NC(=O)N3CCCC3)c2)ncc1C(N)=O [Example 237]
7.00 to 8.00

Subsequent entry: CC(=O)Nc1cccc(Nc2ncc(C(N)=O)c(NC3CCOCC3)n2)c1 [Example 75]
7.00 to 8.00

Subsequent entry: CC(=O)Nc1cc(Nc2ncc(C(N)=O)c(NCc3ccccc3)n2)ccc1Cl [Example 2]
7.00 to 8.00

Subsequent entry: C[C@@H](Nc1nc(Nc2cccc(NC(=O)N3CC[C@H](O)C3)c2)ncc1C(N)=O)c1ccccc1 [Example 128]
7.00 to 8.00

Subsequent entry: CC(=O)Nc1cccc(Nc2ncc(C(N)=O)c(NCC(F)(F)F)n2)c1 [Example 7]
7.00 to 8.00

Subsequent entry: CC(=O)Nc1cccc(Nc2ncc(C(N)=O)c(NCc3cccc(F)c3)n2)c1 [Example 94]
7.00 to 8.00

Subsequent entry: CC(=O)Nc1cccc(Nc2ncc(C(N)=O)c(NCC3CCC3)n2)c1 [Example 262]
7.00 to 8.00
